Data origin, for the record: the supplement of paper PMC7125110

B1: glmS ribozyme (parent)
chain: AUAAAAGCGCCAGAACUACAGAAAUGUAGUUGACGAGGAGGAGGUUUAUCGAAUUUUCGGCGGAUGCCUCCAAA

Variants of: B1
ASSAY METHOD TEXT: self-cleavage kobs at 640 uM GlcN6P; higher = faster cleavage; RNA array
CONDITION: with glucosamine-6-phosphate
Fewer inactive variants are shown than the library holds.
RECORDED ENDPOINT: self-cleavage kobs at 640 uM GlcN6P

Consider the worked cases shown below.
A42G G43A U46G G66U | < 1e-05 s⁻¹
A15C C58A | 5.17e-05 s⁻¹

Ask: Reported self-cleavage kobs at 640 uM GlcN6P for C50U U57G : what is it?
Reply: < 1e-05 s⁻¹

Ask: Reported self-cleavage kobs at 640 uM GlcN6P for U55G U65C C70U : what is it?
Reply: 0.00017 s⁻¹

Ask: Reported self-cleavage kobs at 640 uM GlcN6P for `U45C` : what is it?
Reply: 0.000897 s⁻¹

Ask: Reported self-cleavage kobs at 640 uM GlcN6P for C50U G66U : what is it?
Reply: < 1e-05 s⁻¹
